- experimental.target: T1, human ROR1-His protein (fused with a His protein tag, Acrobiosystems, RO1-H522y) (human, UniProt Q01973 30-403)
- T1 construct: also called recombinant human ROR1-His protein; not shown: His tag
- T1 sequence (Q01973 30-403 limits assumed): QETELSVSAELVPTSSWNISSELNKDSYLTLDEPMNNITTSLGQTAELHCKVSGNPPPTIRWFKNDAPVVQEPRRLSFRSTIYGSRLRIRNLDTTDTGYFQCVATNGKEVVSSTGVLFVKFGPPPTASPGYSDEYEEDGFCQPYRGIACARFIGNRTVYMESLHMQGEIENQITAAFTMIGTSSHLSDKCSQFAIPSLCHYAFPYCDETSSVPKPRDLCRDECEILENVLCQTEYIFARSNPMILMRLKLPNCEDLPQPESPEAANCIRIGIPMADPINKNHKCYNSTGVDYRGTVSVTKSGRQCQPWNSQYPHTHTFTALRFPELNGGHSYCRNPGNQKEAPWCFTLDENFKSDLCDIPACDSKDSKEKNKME
- assay.text: SPR Biacore T200, method as Example 6 (antibody Fc-captured, antigen as analyte)
Below, each of the binders is paired with its reported pKd value.
# reply with the number alone; pKd is -log10 of concentration in mol/L

binder	pKd
single domain antibody AHP15485-VHH4-Variant2 (Fc fusion, Fc format is inferred; not shown: human IgG1 Fc; vector and li) EVQLVESGGGLVQPGGSLRLSCAASGRSFSSFQMGWFRQAPGKEREFVAASGWSGGPTYYWDSVIGRFTISTDNSKNTLYLQMNSLRAEDTAVYYCYEDRVLSGRPVRYWGQGTLVTVSS	7.67

INPUT: // query pKd value for entry single domain antibody AHF22018 (Fc fusion, not shown: human IgG1 Fc; vector and li) EVQLVESGGGLVQPGGSLRLSCAASGRSFSSFQMGWFRQAPGKEREFVAASGWSGGPTYYWDSWKGRFTISTDNSKNTLYLQMNSLRAEDTAVYYCYEDRVLSGRWVRYWGQGTLVTVSS
OUTPUT: 7.69

INPUT: // query pKd value for entry single domain antibody AHF22013 (Fc fusion, Fc format is inferred; not shown: human IgG1 Fc; vector and li) EVQLVESGGGLVQPGGSLRLSCAASGRSFSSFQMGWFRQAPGKEREFVAASGWSGGPTYYWDSVIGRFTISTDNSKNTLYLQMNSLRAEDTAVYYCYEDRVLSGRHVRYWGQGTLVTVSS
OUTPUT: 8.05
